Data provenance is ChEMBL document CHEMBL1201862.

Test system: MDA-MB-231
measurementNotes: NCI tumour cell line growth inhibition, 48 h
The source made the active and inactive calls. No stated cut-off is given here; in the data, active = GI50 up to about 1.1 µM and inactive = higher.

- compound: "CC(C)C(/N=C/c1ccccc1O)C(=O)O (stereo not drawn)"
  assayTarget: "MDA-MB-231"
  GI50: "87.9 µM (inactive)"
- compound: "CC(=O)OC/C=C(/CCl)CCC(Br)C(C)(C)Br.CC(=O)OC/C=C(\\CCl)CCC(Br)C(C)(C)Br (stereo not drawn)"
  assayTarget: "MDA-MB-231"
  GI50: "> 10 µM (inactive)"
- compound: "C/C(=N\\NC(=S)NCCCNC(=S)N/N=C(\\C)c1ccccn1)c1ccccn1"
  assayTarget: "MDA-MB-231"
  GI50: "6.21 µM (inactive)"

====

Tested on: COLO 205
measurementNotes: NCI tumour cell line growth inhibition, 48 h
Calls of active or inactive are those of the source. No stated cut-off is given here; in the data, active = GI50 up to about 1.1 µM and inactive = higher.
Possible outcomes: active, inactive

- compound: "CC1=C2CC[C@@]3(C)C(=CCC3O)C2(C)CCC1=O (some centres undefined)"
  assayTarget: "COLO 205"
  labelValue: "inactive"
- compound: "Cn1c2ccccc2n2c3nc4ccccc4nc3c(C#N)c12"
  assayTarget: "COLO 205"
  labelValue: "inactive"
- compound: "CCCCCCNCCCNc1c2cc(OC)ccc2nc2cccc([N+](=O)[O-])c12"
  assayTarget: "COLO 205"
  labelValue: "active"
- compound: "O=C(/C=C\\c1ccccc1)Oc1ccc(/C=C2\\CCC/C(=C\\c3ccc(OC(=O)/C=C\\c4ccccc4)cc3)C2=O)cc1"
  assayTarget: "COLO 205"
  labelValue: "inactive"
- compound: "Cc1ccc(C)c(NC(=O)C(=O)C(C2C(C)CC(=O)C2CC(=O)O)[N+](=O)[O-])c1 (centres undefined)"
  assayTarget: "COLO 205"
  labelValue: "inactive"
- compound: "O=C(Nc1ccc(Cl)cc1)c1cc([N+](=O)[O-])ccc1O"
  assayTarget: "COLO 205"
  labelValue: "inactive"
- compound: "CN(C(=O)Cc1ccc(Cl)c(Cl)c1)[C@H]1CCCC[C@@H]1[N+]1(C)CCCC1"
  assayTarget: "COLO 205"
  labelValue: "inactive"
- compound: "COC1OC(CO)C(O)C(O)C1Br (centres undefined)"
  assayTarget: "COLO 205"
  labelValue: "inactive"
- compound: "O=C(/C=C/c1c(O)ccc2ccccc12)c1ccc([N+](=O)[O-])cc1"
  assayTarget: "COLO 205"
  labelValue: "inactive"
- compound: "CC(=O)NN/C=N/C(C#N)=C(\\N)C#N"
  assayTarget: "COLO 205"
  labelValue: "inactive"
- compound: "N=C(N)N/N=C/c1nc2sccn2c1[N+](=O)[O-]"
  assayTarget: "COLO 205"
  labelValue: "inactive"
- compound: "CC(=O)Oc1cc2oc(=O)cc(C)c2cc1OC(C)=O"
  assayTarget: "COLO 205"
  labelValue: "inactive"
- compound: "O=C(CCCCCCCCC(=O)N1C(=O)CC(=O)N(c2cccc(Cl)c2)C1=S)N1C(=O)CC(=O)N(c2cccc(Cl)c2)C1=S"
  assayTarget: "COLO 205"
  labelValue: "inactive"
- compound: "COC1/C=C/C(C)C(O)CC(O)/C=C/C(C)C(C(C)C(OC)C(C)CCC(=O)C(C)C(C/C=C/N(C)C=O)OC)OC(=O)/C=C/C=C(\\C)CC(OC)CC2=CC(=O)O[C@@H](C(C)C(OC)C1)[C@H]2O (some centres undefined)"
  assayTarget: "COLO 205"
  labelValue: "active"
- compound: "O=C1CSC(=S)N1c1ccc(F)cc1F"
  assayTarget: "COLO 205"
  labelValue: "inactive"
- compound: "Nc1nc(S)c2c(N)n[nH]c2c1C(=O)Nc1ccc(Cl)cc1"
  assayTarget: "COLO 205"
  labelValue: "inactive"
- compound: "CCOc1ccc2nc(NC(=O)C(=O)C(C(=O)c3ccccc3F)C3OC(=O)c4ccccc43)sc2c1 (centres undefined)"
  assayTarget: "COLO 205"
  labelValue: "inactive"
- compound: "CCOC(=O)C(=O)Nc1c(C)cccc1C(C)(C)C"
  assayTarget: "COLO 205"
  labelValue: "inactive"
- compound: "Cc1c(C)c2c(c(N)c1C#N)C(=O)N(N)C2=O"
  assayTarget: "COLO 205"
  labelValue: "inactive"
- compound: "CCOc1ccc2c(c1)[n+]([O-])c(-c1ccc([N+](=O)[O-])cc1)c(N)[n+]2[O-]"
  assayTarget: "COLO 205"
  labelValue: "inactive"
- compound: "CC(=O)C(=[N+]=[N-])C(=O)OC(C)(C)C#N"
  assayTarget: "COLO 205"
  labelValue: "inactive"
- compound: "Nc1nc(N)c(CCCCc2ccccc2)c(/C=C/c2ccc([N+](=O)[O-])cc2)n1"
  assayTarget: "COLO 205"
  labelValue: "inactive"
- compound: "CC1(C)OC(=O)N(c2ccccc2)C12C=Cc1cc([N+](=O)[O-])ccc1O2 (centres undefined)"
  assayTarget: "COLO 205"
  labelValue: "inactive"
- compound: "Cc1cc(NC(=O)NC(=O)c2ccccc2N)ccc1Oc1ncc(Br)cn1"
  assayTarget: "COLO 205"
  labelValue: "active"
- compound: "COc1ccc(C(c2c(O)c3ccccc3n(C)c2=O)c2c(O)c3ccccc3n(C)c2=O)cc1"
  assayTarget: "COLO 205"
  labelValue: "inactive"
- compound: "COc1ccc(C2=NC(C)(C)CO2)cc1"
  assayTarget: "COLO 205"
  labelValue: "inactive"
- compound: "O=C(OCC(Cl)(Cl)Cl)N1CC[C@@H](C2CCCCC2)C1"
  assayTarget: "COLO 205"
  labelValue: "inactive"
- compound: "CNC(=O)OCc1cc2ccncc2c2c1[nH]c1ccccc12"
  assayTarget: "COLO 205"
  labelValue: "inactive"
- compound: "Cc1nc2ccccc2c(=O)n1NC(=O)c1ccc(N)cc1"
  assayTarget: "COLO 205"
  labelValue: "inactive"
- compound: "C/C(CC(=O)N(C(C)C)C(C)C)=N\\NC(=O)c1ccncc1"
  assayTarget: "COLO 205"
  labelValue: "inactive"
- compound: "CCCC[C@H]1C(=O)O[C@H](C)[C@H](NC(=O)c2cccc(NC=O)c2OC)C(=O)O[C@@H](C)[C@@H]1OC(=O)C(C)CC.CCCC[C@H]1C(=O)O[C@H](C)[C@H](NC(=O)c2cccc(NC=O)c2OC)C(=O)O[C@@H](C)[C@@H]1OC(=O)CC(C)C (some centres undefined)"
  assayTarget: "COLO 205"
  labelValue: "inactive"
- compound: "COc1cc(C2SC(=N)Nc3c2c(C)nn3C(=O)Cc2ccccc2)ccc1O (centres undefined)"
  assayTarget: "COLO 205"
  labelValue: "inactive"
- compound: "C=C(CN(C)C)C(=O)c1ccc(OC2OC(COC(C)=O)C(OC(C)=O)C(OC(C)=O)C2OC(C)=O)cc1 (centres undefined)"
  assayTarget: "COLO 205"
  labelValue: "active"
- compound: "COc1ccc2c(c1)c1nn(CCN3CCCCC3)c3ccc4c(=O)n(CCN(C)C)c(=O)n2c4c13"
  assayTarget: "COLO 205"
  labelValue: "active"

====

System: NCI-H460
measurementNotes: NCI tumour cell line growth inhibition, 48 h
Calls of active or inactive are those of the source. Rule as the data show it: active = GI50 up to about 1.1 µM and inactive = higher.
experimentalEndpoint: GI50

- molecule: "COc1ccc(CC(=O)NCCc2ccc(OC)c(OC)c2)cc1Br"
  assayTarget: "NCI-H460"
  experimentalEndpoint: "GI50"
  dataValue: "> 100 µM (inactive)"
- molecule: "CC(C)CCc1n[nH]c(=O)n1/N=C\\c1ccccc1"
  assayTarget: "NCI-H460"
  experimentalEndpoint: "GI50"
  dataValue: "> 100 µM (inactive)"
- molecule: "S=C(N/N=C\\C=N/NC(=S)N1CCCCCC1)N1CCCCCC1"
  assayTarget: "NCI-H460"
  experimentalEndpoint: "GI50"
  dataValue: "3.93 µM (inactive)"
- molecule: "CCCCC(=O)OC[n+]1cccc(-c2c(COC(=O)NC(C)C)c(COC(=O)NC(C)C)c3n2CCC3)c1"
  assayTarget: "NCI-H460"
  experimentalEndpoint: "GI50"
  dataValue: "15 µM (inactive)"
- molecule: "O=Cc1c(O)c(C(=O)Nc2ccc3[nH]c(=O)[nH]c3c2)cc2ccccc12"
  assayTarget: "NCI-H460"
  experimentalEndpoint: "GI50"
  dataValue: "> 100 µM (inactive)"
- molecule: "COC(=O)C#Cc1ccc([N+](=O)[O-])cc1"
  assayTarget: "NCI-H460"
  experimentalEndpoint: "GI50"
  dataValue: "13.1 µM (inactive)"
- molecule: "COc1cc(C2SCC(=O)N2c2ccccc2Cl)cc(OC)c1OC (centres undefined)"
  assayTarget: "NCI-H460"
  experimentalEndpoint: "GI50"
  dataValue: "> 100 µM (inactive)"
- molecule: "[O-][S+]1[C@H](c2ccccc2)c2c(-c3ccccc3)sc(-c3ccccc3)c2[C@@H]1c1ccccc1 (some centres undefined)"
  assayTarget: "NCI-H460"
  experimentalEndpoint: "GI50"
  dataValue: "17.1 µM (inactive)"
- molecule: "COc1cc(C(=O)C/C(CCCC(=O)Nc2ccccc2[N+](=O)[O-])=N/NC(=O)c2cc3ccccc3cc2O)ccc1O"
  assayTarget: "NCI-H460"
  experimentalEndpoint: "GI50"
  dataValue: "40.6 µM (inactive)"
- molecule: "CC(=O)O[C@@H]1CN(S(=O)(=O)c2ccc(C)cc2)C[C@@H]1C1CCCCC1"
  assayTarget: "NCI-H460"
  experimentalEndpoint: "GI50"
  dataValue: "34.5 µM (inactive)"
- molecule: "CC(C)OC(=O)C1=C2c3ncccc3C(=O)N2[C@@H](Cl)[C@@H](Cl)[C@@H]1Cl"
  assayTarget: "NCI-H460"
  experimentalEndpoint: "GI50"
  dataValue: "> 100 µM (inactive)"
- molecule: "CCN(CC)CCCn1c(=O)c2cccnc2n2c3c(=O)n(C)c(=O)n(C)c3nc12"
  assayTarget: "NCI-H460"
  experimentalEndpoint: "GI50"
  dataValue: "84.7 µM (inactive)"
- molecule: "COc1cc2ccnc(C#N)c2cc1OCc1ccccc1"
  assayTarget: "NCI-H460"
  experimentalEndpoint: "GI50"
  dataValue: "> 100 µM (inactive)"
- molecule: "O=C(C(=O)c1cc(-c2ccccc2)nc2ccc3ccccc3c12)c1ccccc1"
  assayTarget: "NCI-H460"
  experimentalEndpoint: "GI50"
  dataValue: "> 100 µM (inactive)"
